tested_target: 5-HT2A (Homo sapiens, UniProt P28223)
Sequence (P28223 whole entry): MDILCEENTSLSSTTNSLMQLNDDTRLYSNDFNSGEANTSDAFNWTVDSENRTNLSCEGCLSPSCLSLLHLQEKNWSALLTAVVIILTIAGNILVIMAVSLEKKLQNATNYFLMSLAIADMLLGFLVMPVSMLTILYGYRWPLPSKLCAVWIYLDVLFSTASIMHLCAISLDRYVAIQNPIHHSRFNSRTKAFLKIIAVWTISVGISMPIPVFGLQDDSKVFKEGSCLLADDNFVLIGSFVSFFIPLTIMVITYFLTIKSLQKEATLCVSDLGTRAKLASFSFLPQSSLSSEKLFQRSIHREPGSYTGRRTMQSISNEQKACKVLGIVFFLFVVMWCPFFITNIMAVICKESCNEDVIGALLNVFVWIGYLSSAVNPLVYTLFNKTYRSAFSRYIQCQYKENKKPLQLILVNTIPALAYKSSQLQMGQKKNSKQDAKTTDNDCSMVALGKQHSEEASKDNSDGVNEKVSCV
procedure_summary: cell-based
Design: expressed in transfected cells; host or cells: HEK293T, transient
condition: BRET, mean ± SEM; read-out: 5-HT2A Gq dissociation pEC50 (converted)
Collected EC50 values appear next to each entry.
Numeric answer only, unit nM assumed.

| compound | unit_text | EC50 |
| --- | --- | --- |
| COc1cc(Br)c(Br)c(OC)c1CCNCc1cccc2ccccc12 | nM | 3.89 |
| COc1cc(OC)c(OC)cc1CCNCc1cccc2cccnc12 | nM | 11.2 |
| COc1cc(CCNC2CCc3ccccc32)c(OC)cc1C (centres unmarked) | nM | 6.31 |
| COc1cc(OC)c(OC)cc1CCNCc1ccccc1C1CC1 | nM | 3.63 |
| COc1cc(OC)c(OC)cc1CCNCc1cccc(Br)c1O | nM | 20.4 |
| COc1cc(OC)c(OC)cc1CCNCc1cccc2c1oc1ccccc12 | nM | 81.3 |

Ask | Tell me the measured EC50 of COc1cc(OC)c(OC)cc1CCNCc1ccc(F)c2ccccc12 , please.
Reply | 22.9

Ask | Tell me the measured EC50 of COc1cc(OC)c(OC)cc1CCNCc1cccc(F)c1F , please.
Reply | 64.6

Ask | Tell me the measured EC50 of COc1cc(OC)c(OC)cc1CCNCc1cccc2c1CCCC2 , please.
Reply | 7.59

Ask | Tell me the measured EC50 of COc1cc(Br)cc(OC)c1CC(C)NCc1cccc2ccccc12 (centres unmarked) , please.
Reply | 31.6

Ask | Tell me the measured EC50 of COc1cc(OC)c(OC)cc1CCNCc1cccc(C(C)(C)C)c1 , please.
Reply | 1620

###

Consider the following Ki values measured on 5-HT2B (Homo sapiens, UniProt P41595).
Sequence (P41595 whole entry): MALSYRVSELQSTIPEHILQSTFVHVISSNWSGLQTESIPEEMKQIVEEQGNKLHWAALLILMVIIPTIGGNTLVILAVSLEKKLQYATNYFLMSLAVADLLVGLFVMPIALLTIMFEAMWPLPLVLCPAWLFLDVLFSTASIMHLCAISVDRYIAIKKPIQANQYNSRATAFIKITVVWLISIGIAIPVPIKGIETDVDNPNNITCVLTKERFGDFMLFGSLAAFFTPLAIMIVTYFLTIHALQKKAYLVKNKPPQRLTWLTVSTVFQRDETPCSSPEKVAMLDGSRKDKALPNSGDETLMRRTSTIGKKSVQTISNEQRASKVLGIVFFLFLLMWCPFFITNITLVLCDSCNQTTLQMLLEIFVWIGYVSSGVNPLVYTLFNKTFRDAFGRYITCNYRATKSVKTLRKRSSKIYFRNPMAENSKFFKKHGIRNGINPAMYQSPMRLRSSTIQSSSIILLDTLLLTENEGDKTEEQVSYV
Numeric answer only, unit nM assumed.

| compound | Ki (nM) |
| --- | --- |
| COc1cc([N+](=O)[O-])c(OC)cc1CCNCc1ccccc1OC [25N-NBOMe (4)] | 4.47 |
| COc1cc([N+](=O)[O-])c(OC)cc1CCNCc1cccc2c1OC(F)(F)O2 [25N-NBMDF2 (13)] | 46.8 |

Ask | Tell me the measured Ki of COc1cc([N+](=O)[O-])c(OC)cc1CCNCc1ccc(C)cc1 [25N-NB-4-Me (23)] , please.
Reply | 52.5

Ask | Tell me the measured Ki of COc1cc([N+](=O)[O-])c(OC)cc1CCNCc1ccccc1C(F)(F)F [25N-NBCF3 (14)] , please.
Reply | 58.9

###

Collected melting point values appear next to each entry.
Structures can show the parent of a compound that is named as a salt.

Would you please look over these solved cases?
| compound | melting point |
| --- | --- |
| COc1cc([N+](=O)[O-])c(OC)cc1CCNCc1cccc(O)c1 (as salt: HCl) [25N-NB-3-OH (21)] | 194 to 195.5 °C |
| COc1cc([N+](=O)[O-])c(OC)cc1CCNCc1ccc(C)cc1 (as salt: HCl) [25N-NB-4-Me (23)] | 182 to 184 °C |
| COc1cc([N+](=O)[O-])c(OC)cc1CCNCc1ccccc1-c1ccccc1 (as salt: HCl) [25N-NBPh (17)] | 181.5 to 182.5 °C |

Ask | Tell me the measured melting point of COc1cc([N+](=O)[O-])c(OC)cc1CCNCc1cccc(F)c1 (as salt: HCl) [25N-NB-3-F (24)] , please.
Reply | 216.2 to 217.5 °C

FYI, the data here is from patent US20240254087A1.
